TESTED TARGET: Recombinant human KIF18A (1-467 His-tagged) protein (Homo sapiens)
Construct: Recombinant human KIF18A (1-467 His-tagged) protein; His
PROCEDURE TEXT: KIF18A Enzyme Assay: microtubule-stimulated ATPase activity (ADP-Glo)
MEASUREMENT CONDITIONS: 30 nM KIF18A, 75 μM ATP
Items are presented alongside their recorded IC50.
ASSAY ENDPOINT: IC50 (nM)

>>> measured_result("O=C(Nc1cccc(S(=O)(=O)C2CCCC2)c1)c1ccc(OC2COC2)nc1N1CCC2(CC1)CC2")
296
>>> measured_result("C[C@@H]1CN(c2cc(F)cc(NC(=O)c3ccc(NC(C)(C)CO)nc3N3CCC4(CC3)CC4)c2)CCO1")
208
>>> measured_result("O=C(Nc1cccc(C(=O)N2CCCC(F)(F)C2)c1)c1ccncc1N1CCC2(CC1)CC2")
1680
>>> measured_result("Cc1cncc(-c2cc(NC(=O)c3ccc(NC(C)(C)CO)nc3N3CCC4(CC3)CC4)ccc2C)c1")
165
>>> measured_result("O=C(Nc1cccc(S(=O)(=O)C2CCCC2)c1)c1ccc(NC2(CO)CC2)nc1N1CCC2(CCC2)CC1")
38
>>> measured_result("O=C(Nc1cccc(S(=O)(=O)C2CCCC2)c1)c1ccc(N2CC(O)C2)nc1N1CCC2(CC1)CC2")
118
>>> measured_result("CC1(NS(=O)(=O)c2cccc(NC(=O)c3ccc(NC(CO)CO)nc3N3CCC4(CC3)CC4)c2)CCC1")
78
>>> measured_result("O=C(Nc1cccc(S(=O)(=O)CC2CC2)c1)c1cccnc1N1CCC2(CC1)CC2")
910
>>> measured_result("CC(CO)(CO)Nc1ccc(C(=O)Nc2cccc(S(=O)(=O)C3CCCC3)c2)c(N2CCC3(CC2)CC3)n1")
39
>>> measured_result("Cc1cc(NC(=O)c2ccc(NC(C)(C)CO)nc2N2CCC3(CC2)CC3)cc(S(=O)(=O)NC(C)(C)C)c1")
122
>>> measured_result("CC(C)(C)NS(=O)(=O)c1cccc(NC(=O)c2ccc(N3CCC3)nc2N2CCC3(CC2)CC3)c1")
118
>>> measured_result("Cc1ccc(NC(=O)c2ccc(NC(C)(C)CO)nc2N2CCC3(CC2)CC3)cc1-c1cccnc1")
306
>>> measured_result("CC(C)(C)NS(=O)(=O)c1cccc(NC(=O)c2ccc(NC3(CO)CC3)nc2N2CCC3(CC2)CC3)c1")
94
>>> measured_result("O=C(Nc1cccc(S(=O)(=O)Nc2ccc(F)cc2)c1)c1cccnc1N1CCC2(CC1)CC2")
393
>>> measured_result("O=C(Nc1cccc(S(=O)(=O)N2CCC(F)CC2)c1)c1cccnc1N1CCC2(CCC2)CC1")
160

----------
TESTED TARGET: Recombinant human KIF18A (1-467 His-tagged) protein (Homo sapiens, UniProt Q8NI77)
Construct: Recombinant human KIF18A (1-467 His-tagged) protein; His
Sequence (Q8NI77 1-467): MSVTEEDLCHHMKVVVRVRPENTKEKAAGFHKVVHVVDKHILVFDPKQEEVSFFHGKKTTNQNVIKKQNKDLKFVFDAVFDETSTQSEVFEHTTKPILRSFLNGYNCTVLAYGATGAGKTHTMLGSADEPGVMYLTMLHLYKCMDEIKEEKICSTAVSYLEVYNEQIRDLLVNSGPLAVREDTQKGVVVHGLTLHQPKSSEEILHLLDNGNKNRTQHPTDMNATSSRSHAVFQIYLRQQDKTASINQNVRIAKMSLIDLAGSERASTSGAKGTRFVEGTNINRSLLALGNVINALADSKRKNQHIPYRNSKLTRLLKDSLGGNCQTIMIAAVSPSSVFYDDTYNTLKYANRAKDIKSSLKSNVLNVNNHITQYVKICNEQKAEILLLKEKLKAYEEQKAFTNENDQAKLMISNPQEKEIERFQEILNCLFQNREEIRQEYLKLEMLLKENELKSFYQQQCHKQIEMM
Sequence (P02550 whole entry partner): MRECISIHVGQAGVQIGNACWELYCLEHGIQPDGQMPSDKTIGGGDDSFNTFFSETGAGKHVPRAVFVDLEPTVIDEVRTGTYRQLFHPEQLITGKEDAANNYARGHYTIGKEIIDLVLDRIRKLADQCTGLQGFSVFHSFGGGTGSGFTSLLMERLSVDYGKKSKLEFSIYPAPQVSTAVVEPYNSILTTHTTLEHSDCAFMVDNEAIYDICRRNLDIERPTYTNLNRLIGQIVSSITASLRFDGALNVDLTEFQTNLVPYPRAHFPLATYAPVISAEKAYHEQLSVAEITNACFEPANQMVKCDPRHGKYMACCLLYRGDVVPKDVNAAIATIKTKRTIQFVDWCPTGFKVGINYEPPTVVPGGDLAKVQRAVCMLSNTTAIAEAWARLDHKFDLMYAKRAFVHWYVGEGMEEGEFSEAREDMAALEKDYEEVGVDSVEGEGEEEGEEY
Sequence (P02554 whole entry partner): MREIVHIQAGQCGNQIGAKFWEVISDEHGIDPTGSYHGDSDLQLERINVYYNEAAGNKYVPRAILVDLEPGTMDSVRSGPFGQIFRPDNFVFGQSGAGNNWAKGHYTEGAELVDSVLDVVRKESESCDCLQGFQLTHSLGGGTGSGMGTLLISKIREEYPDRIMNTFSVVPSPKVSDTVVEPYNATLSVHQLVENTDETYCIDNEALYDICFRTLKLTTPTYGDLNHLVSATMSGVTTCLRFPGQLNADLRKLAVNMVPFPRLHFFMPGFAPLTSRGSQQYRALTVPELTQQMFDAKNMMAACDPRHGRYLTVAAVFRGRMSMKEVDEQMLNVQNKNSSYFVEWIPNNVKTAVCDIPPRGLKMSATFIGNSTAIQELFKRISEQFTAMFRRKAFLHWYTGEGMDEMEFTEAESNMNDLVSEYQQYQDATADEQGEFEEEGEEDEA
PROCEDURE TEXT: KIF18A Enzyme Assay: microtubule-stimulated ATPase activity (ADP-Glo)
MEASUREMENT CONDITIONS: 30 nM KIF18A, 75 μM ATP
# strict inequality: IC50 < 300 nM yields 1, everything else yields 0

>>> answer_label("CC(C)(CO)Nc1ccc(C(=O)Nc2cccc(S(=O)(=O)C(C)(C)C)c2)c(N2CCC3(CC2)CC3)n1 [Example 105-2]")
1
>>> answer_label("CCCC1CCN(c2ncccc2C(=O)Nc2cccc(S(=O)(=O)C3CCCC3)c2)CC1 [Example 100-17]")
0
>>> answer_label("CC(C)(C)NS(=O)(=O)c1cccc(NC(=O)c2ccc(N3CC[C@@H]4C[C@@H]43)nc2N2CCC3(CC2)CC3)c1 [Example 102-6]")
1
>>> answer_label("CC(C)NS(=O)(=O)c1cccc(NC(=O)c2cccnc2N2CCC3(CC2)CC3)c1 [Example 100-11]")
0
>>> answer_label("O=C(Nc1cccc(S(=O)(=O)NC2CCCCC2)c1)c1cccnc1N1CCC2(CC1)CC2 [Example 101-4]")
0
>>> answer_label("O=C(Nc1cccc(S(=O)(=O)N2CCC(F)CC2)c1)c1cccnc1N1CCC2(CC1)CC2 [Example 100-8]")
1
>>> answer_label("O=C(Nc1cccc(S(=O)(=O)C2CCCC2)c1)c1ccc(NCC2(O)CCC2)nc1N1CCC2(CC1)CC2 [Example 103-17]")
1
>>> answer_label("CC(C)(C)NS(=O)(=O)c1cccc(NC(=O)c2ccc(N3CC[C@H]4CC[C@@H]3O4)nc2N2CCC3(CC2)CC3)c1 [Example 102-9]")
1
>>> answer_label("C[C@@H](O)CNc1ccc(C(=O)Nc2cccc(S(=O)(=O)C3CCCC3)c2)c(N2CCC3(CC2)CC3)n1 [Example 103-11]")
1
>>> answer_label("CC(C)(C)NC(=O)c1cccc(NC(=O)c2ccc(NC(C)(C)CO)nc2N2CCC3(CC2)CC3)c1 [Example 105-25]")
0
>>> answer_label("Cc1ccc(NC(=O)c2ccc(NC(C)(C)CO)nc2N2CCC3(CC2)CC3)cc1S(=O)(=O)NC(C)(C)C [Example 105-16]")
1
>>> answer_label("Cc1ccc(NC(=O)c2ccc(NC(C)(C)CO)nc2N2CCC3(CC2)CC3)cc1-c1ccncc1 [Example 111-12]")
0
>>> answer_label("CC(O)(c1ccc(C(=O)Nc2cccc(S(=O)(=O)C3CCCC3)c2)c(N2CCC3(CC2)CC3)n1)C(F)(F)F (stereo not drawn) [Example 108-2]")
1
>>> answer_label("O=C(Nc1ccc(F)c(C(=O)N2CCCC(F)(F)C2)c1)c1ccncc1N1CCC2(CC1)CC2 [Example 115-3]")
0
>>> answer_label("CC(C)(CO)Nc1ccc(C(=O)Nc2cccc(S(=O)(=O)NC3(C)CCC3)c2)c(N2CCC3(CC2)CC3)n1 [Example 105-13]")
1

----------
TESTED TARGET: Recombinant human KIF18A (1-467 His-tagged) protein (Homo sapiens, UniProt Q8NI77)
Construct: Recombinant human KIF18A (1-467 His-tagged) protein; His
PROCEDURE TEXT: KIF18A Enzyme Assay: microtubule-stimulated ATPase activity (ADP-Glo)
MEASUREMENT CONDITIONS: 30 nM KIF18A, 75 μM ATP
ASSAY ENDPOINT: log10(IC50) (log10 of the value in nM)

>>> measured_result("O=C(Nc1cccc(S(=O)(=O)N2CCC(F)(F)CC2)c1)c1cccnc1N1CCC2(CCC2)CC1")
1.95
>>> measured_result("CC1(C)CCN(c2ccc(C(=O)Nc3cccc(S(=O)(=O)NC(C)(C)C)c3)c(N3CCC4(CC3)CC4)n2)C1")
2.29
>>> measured_result("CC(C)(C)NS(=O)(=O)c1cccc(NC(=O)c2ccc(NC3(CO)COC3)nc2N2CCC3(CC2)CC3)c1")
1.90
>>> measured_result("CC(C)(C)NS(=O)(=O)c1cccc(NC(=O)c2ccc(NC3CCC3)nc2N2CCC3(CC2)CC3)c1")
2.34
>>> measured_result("CC(C)(C)NS(=O)(=O)c1cccc(NC(=O)c2ccc([C@@](C)(O)CO)nc2N2CCC3(CC2)CC3)c1 (single isomer, unassigned)")
1.81
>>> measured_result("CC(C)CS(=O)(=O)c1cccc(NC(=O)c2ccc(NC(C)(C)CO)nc2N2CCC3(CC2)CC3)c1")
1.62
>>> measured_result("O=C(Nc1cccc(S(=O)(=O)C2CCCC2)c1)c1ccncc1N1CCC2(CC1)CC2(F)F")
2.87

----------
Items are presented alongside their recorded log10 of IC50.
TESTED TARGET: Recombinant human KIF18A (1-467 His-tagged) protein (Homo sapiens, UniProt Q8NI77)
Construct: Recombinant human KIF18A (1-467 His-tagged) protein; His
PROCEDURE TEXT: KIF18A Enzyme Assay: microtubule-stimulated ATPase activity (ADP-Glo)
MEASUREMENT CONDITIONS: 30 nM KIF18A, 75 μM ATP
ASSAY ENDPOINT: log10 of IC50 (log10 of the value in nM)

>>> measured_result("Cc1coc(-c2cccc(NC(=O)c3ccc(NC(C)(C)CO)nc3N3CCC4(CC3)CC4)c2)n1")
2.35
>>> measured_result("CC(C)(C)NS(=O)(=O)c1cccc(NC(=O)c2ccc(NCc3ccccc3)nc2N2CCC3(CC2)CC3)c1")
2.50
>>> measured_result("Cc1noc(-c2cccc(NC(=O)c3ccc(NC(C)(C)CO)nc3N3CCC4(CC3)CC4)c2)n1")
2.62
>>> measured_result("CC(C)(CO)Nc1ccc(C(=O)Nc2cccc(S(=O)(=O)C(F)(F)F)c2)c(N2CCC3(CC2)CC3)n1")
2.27
>>> measured_result("CC(C)(C)NS(=O)(=O)c1cccc(NC(=O)c2ccc(N3CC[C@H](O)C3)nc2N2CCC3(CC2)CC3)c1")
2.37
>>> measured_result("CC(C)(C)NS(=O)(=O)c1cccc(NC(=O)c2ccc(N3C[C@H]4C[C@@H]3CO4)nc2N2CCC3(CC2)CC3)c1")
2.02
>>> measured_result("COc1ccc(NC(=O)c2ccc(NC(C)(C)CO)nc2N2CCC3(CC2)CC3)cc1S(=O)(=O)NC(C)(C)C")
2.21
>>> measured_result("O=C(Nc1cccc(S(=O)(=O)C2CCCC2)c1F)c1cccnc1N1CCC2(CC1)CC2")
2.88
>>> measured_result("COc1ccc(C(=O)Nc2cccc(S(=O)(=O)C3CCCC3)c2)c(N2CCC3(CC2)CC3)n1")
2.42
>>> measured_result("CC(C)(C)NS(=O)(=O)c1cccc(NC(=O)c2ccc([C@](C)(O)C(F)(F)F)nc2N2CCC3(CC2)CC3)c1 (single isomer, unassigned)")
1.85
>>> measured_result("Cc1ccc(NC(=O)c2ccc(NC(C)(C)CO)nc2N2CCC3(CC2)CC3)cc1-c1ccco1")
2.44
>>> measured_result("O=C(Nc1cccc(S(=O)(=O)C2CCCC2)c1)c1ccc(NC2(CO)CCC2)nc1N1CCC2(CC1)CC2")
1.73
>>> measured_result("CC(C)(C)NS(=O)(=O)c1cc(NC(=O)c2ccc(NC(C)(C)CO)nc2N2CCC3(CC2)CC3)cc(-c2cccnc2)c1")
2.75
>>> measured_result("CC(C)(C)NS(=O)(=O)c1cccc(NC(=O)c2ccc(NC3COC3)nc2N2CCC3(CC2)CC3)c1")
1.92
